Molecular target: Mu-type opioid receptor (Bos taurus, UniProt P79350)
Sequence (P79350 whole entry): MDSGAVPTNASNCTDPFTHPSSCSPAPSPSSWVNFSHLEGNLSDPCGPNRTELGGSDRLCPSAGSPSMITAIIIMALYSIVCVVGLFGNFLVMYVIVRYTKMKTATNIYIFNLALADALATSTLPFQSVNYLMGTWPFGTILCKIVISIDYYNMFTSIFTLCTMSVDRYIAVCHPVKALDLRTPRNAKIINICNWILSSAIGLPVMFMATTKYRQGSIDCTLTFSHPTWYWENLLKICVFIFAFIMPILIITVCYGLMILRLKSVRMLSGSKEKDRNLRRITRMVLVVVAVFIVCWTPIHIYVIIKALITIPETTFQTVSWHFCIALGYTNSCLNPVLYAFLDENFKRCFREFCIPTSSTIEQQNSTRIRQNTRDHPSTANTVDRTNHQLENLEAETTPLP
Experiment: Activity was evaluated by inhibition of the binding of 0.8 nM [3H]- DAMGO at Opioid receptor mu 1 binding site
pKi: −log10 of the molar value.
Please mark 1 (yes) if the recorded pKi is equal to or greater than 7, and 0 (no) if it falls below.

Worked cases, answers included:
[
  {
    "compound": "CN(C)C1CCC2(C)CC1(CO)Cc1ccc(O)cc12 (single isomer, unassigned; (+))",
    "category-label": "0 (no)"
  },
  {
    "compound": "CC12CCC(N)C(CO)(Cc3ccc(O)cc31)C2 (stereo in doubt; (+)-3b)",
    "category-label": "1 (yes)"
  },
  {
    "compound": "COCC12Cc3ccc(O)cc3C(C)(CCC1N)C2 (stereo in doubt; (-)-3a)",
    "category-label": "1 (yes)"
  }
]

[Q] Could you please find out whether COCC12Cc3ccc(O)cc3C(C)(CCC1N(C)C)C2 (single isomer, unassigned; (+)) has pKi that meets 7 or exceeds it?
[A] 1 (yes)

[Q] Dear colleague, could you confirm whether CN1CC23Cc4ccc(O)cc4C(C)(CCC12)C3 (single isomer, unassigned; (+)) has pKi at or above 7?
[A] 0 (no)

[Q] Given the entry COCC12Cc3ccc(O)cc3C(C)(CCC1N)C2 (stereo in doubt; (+)3a) , answer whether its pKi meets or surpasses 7.
[A] 1 (yes)

[Q] Is pKi at least 7? Consider CN(C)C1CCC2(C)CC1(C)Cc1ccc(O)cc12 (single isomer, unassigned; (-))
[A] 0 (no)

[Q] // inclusive: pKi at least 7? input: CN(C)C1CCC2(C)CC1(CO)Cc1ccc(O)cc12 (stereo in doubt; (-)-3c)
[A] 0 (no)

[Q] Could you verify whether the entry CNC1CCC2(C)CC1(CO)Cc1ccc(O)cc12 (single isomer, unassigned; (+)) shows pKi of no less than 7?
[A] 1 (yes)

[Q] Determine whether measured pKi meets or exceeds 7 for CNC1CCC2(C)CC1(CO)Cc1ccc(O)cc12 (single isomer, unassigned; (-))
[A] 0 (no)

Values compiled from ChEMBL document CHEMBL1129309.
